Ref: paper PMC4055595

assay: Rat plasma pharmacokinetics after 10-day vehicle/SLE and digoxin or GE; assay type: in vivo, Sprague-Dawley rats; conditions: female, Sprague-Dawley, rat, plasma, po, rats, SLE 500 mg/kg ig once a day for 10 days, day 11 digoxin 0.5 mg/kg or GE 120 mg/kg ig; read-out: t1/2 (converted)
Property Label: half-life (h)

{"Molecule": "C[C@H]1O[C@@H](O[C@H]2[C@@H](O)C[C@H](O[C@H]3[C@@H](O)C[C@H](O[C@H]4CC[C@@]5(C)[C@H](CC[C@@H]6[C@@H]5C[C@@H](O)[C@]5(C)[C@@H](C7=CC(=O)OC7)CC[C@]65O)C4)O[C@@H]3C)O[C@@H]2C)C[C@H](O)[C@@H]1O [Digoxin, digoxin, reference compound]", "Numeric Result": 2.19}

---

Test: Rat plasma pharmacokinetics after single-dose vehicle/SLE and digoxin or GE
Assay type: in vivo, Sprague-Dawley rats
Conditions: female, Sprague-Dawley, rat, plasma, po, rats, control: single vehicle, 2 h later digoxin 0.5 mg/kg or GE 120 mg/kg ig
Description: This study was carried out in strict accordance with the recommendations in the Guide for the Care and Use of Laboratory Animals of the National Institutes of Health. […] Pharmacokinetic parameters were calculated using the WinNonlin 6.3 program (Pharsight Inc., Mountain View, CA). The elimination half-life (t 1/2) value was calculated as 0.693/β, where β is the elimination rate constant calculated from the terminal linear portion of the log plasma concentration-time curve. […]
Reported values of AUC for individual entries

{"Compound": "CC(C)=CCC[C@](C)(O[C@@H]1O[C@H](CO)[C@@H](O)[C@H](O)[C@H]1O)[C@H]1CC[C@]2(C)[C@@H]1[C@H](O)C[C@@H]1[C@@]3(C)CC[C@H](O[C@@H]4O[C@H](CO)[C@@H](O)[C@H](O)[C@H]4O[C@@H]4O[C@H](CO)[C@@H](O)[C@H](O)[C@H]4O)C(C)(C)[C@@H]3CC[C@]12C [Rd, ginsenoside Rd]", "Result Unit": "ng·h/mL", "AUC": 5350}
{"Compound": "CC(C)=CCC[C@](C)(O[C@@H]1O[C@H](CO[C@@H]2OC[C@H](O)[C@H](O)[C@H]2O)[C@@H](O)[C@H](O)[C@H]1O)[C@H]1CC[C@]2(C)[C@@H]1[C@H](O)C[C@@H]1[C@@]3(C)CC[C@H](O[C@@H]4O[C@H](CO)[C@@H](O)[C@H](O)[C@H]4O[C@@H]4O[C@H](CO)[C@@H](O)[C@H](O)[C@H]4O)C(C)(C)[C@@H]3CC[C@]12C [Rb2, ginsenoside Rb2]", "Result Unit": "ng·h/mL", "AUC": 10200}
{"Compound": "C[C@H]1O[C@@H](O[C@H]2[C@@H](O)C[C@H](O[C@H]3[C@@H](O)C[C@H](O[C@H]4CC[C@@]5(C)[C@H](CC[C@@H]6[C@@H]5C[C@@H](O)[C@]5(C)[C@@H](C7=CC(=O)OC7)CC[C@]65O)C4)O[C@@H]3C)O[C@@H]2C)C[C@H](O)[C@@H]1O [Digoxin, digoxin, reference compound]", "Result Unit": "ng·h/mL", "AUC": 61.8}

---

assay: Rat plasma pharmacokinetics after single-dose vehicle/SLE and digoxin or GE; type: in vivo, Sprague-Dawley rats; settings: female, Sprague-Dawley, rat, in vivo, po, t1/2
Property Label: half-life (h)

{"Molecule": "CC(C)=CCC[C@](C)(O[C@@H]1O[C@H](CO[C@@H]2O[C@@H](CO)[C@H](O)[C@H]2O)[C@@H](O)[C@H](O)[C@H]1O)[C@H]1CC[C@]2(C)[C@@H]1[C@H](O)C[C@@H]1[C@@]3(C)CC[C@H](O[C@@H]4O[C@H](CO)[C@@H](O)[C@H](O)[C@H]4O[C@@H]4O[C@H](CO)[C@@H](O)[C@H](O)[C@H]4O)C(C)(C)[C@@H]3CC[C@]12C [Rc, ginsenoside Rc]", "Property Label": "half-life", "Numeric Result": 17.3}

---

Tested on: LLC-PK1 cells (lacking P-gp)
Test: Transport of digoxin and ginsenosides across LLC-PK1 cell monolayers
Assay type: in vitro ADME
Conditions: 10 µM verapamil
Protocol: LLC-PK1 cells, a cell line lacking P-gp, and the derived cell line L-MDR1, which over-express human MDR1-encoded P-gp, were grown in minimum essential medium with supplements at 37°C, 5% CO2, and 95% humidity. […] Transepithelial resistance was measured in each well using a Millicell ERS ohmmeter (Millipore, Bedford, MA); wells registering a resistance of 200 ohms or greater, after correcting for the resistance obtained in control blank wells, were used in the transport experiments. […]
Property Label: Effect of verapamil on transport (efflux ratio)

{"Molecule": "C[C@H]1O[C@@H](O[C@H]2[C@@H](O)C[C@H](O[C@H]3[C@@H](O)C[C@H](O[C@H]4CC[C@@]5(C)[C@H](CC[C@@H]6[C@@H]5C[C@@H](O)[C@]5(C)[C@@H](C7=CC(=O)OC7)CC[C@]65O)C4)O[C@@H]3C)O[C@@H]2C)C[C@H](O)[C@@H]1O [Digoxin, digoxin, reference compound]", "Result": "No transport difference"}
{"Molecule": "CC(C)=CCC[C@](C)(O)[C@H]1CC[C@]2(C)[C@@H]1[C@H](O)C[C@@H]1[C@@]3(C)CC[C@H](O)C(C)(C)[C@@H]3[C@@H](O[C@@H]3O[C@H](CO)[C@@H](O)[C@H](O)[C@H]3O[C@@H]3O[C@@H](C)[C@H](O)[C@@H](O)[C@H]3O)C[C@]12C [Rg2, ginsenoside Rg2]", "Result": "No transport difference"}
{"Molecule": "CC(C)=CCC[C@](C)(O)[C@H]1CC[C@]2(C)[C@@H]1[C@H](O)C[C@@H]1[C@@]3(C)CC[C@H](O)C(C)(C)[C@@H]3[C@@H](O[C@@H]3O[C@H](CO)[C@@H](O)[C@H](O)[C@H]3O)C[C@]12C [Rh1, ginsenoside Rh1]", "Result": "No transport difference"}

---

test: Rat plasma pharmacokinetics after single-dose vehicle/SLE and digoxin or GE; assay type: in vivo, Sprague-Dawley rats; conditions: female, Sprague-Dawley, rat, in vivo, po, Tmax

{"Compound": "CC(C)=CCC[C@](C)(O[C@@H]1O[C@H](CO[C@@H]2O[C@@H](CO)[C@H](O)[C@H]2O)[C@@H](O)[C@H](O)[C@H]1O)[C@H]1CC[C@]2(C)[C@@H]1[C@H](O)C[C@@H]1[C@@]3(C)CC[C@H](O[C@@H]4O[C@H](CO)[C@@H](O)[C@H](O)[C@H]4O[C@@H]4O[C@H](CO)[C@@H](O)[C@H](O)[C@H]4O)C(C)(C)[C@@H]3CC[C@]12C [Rc, ginsenoside Rc]", "Result Unit": "h", "Tmax": 9.5}

---

Reported values of half-life for individual entries
assay: Rat plasma pharmacokinetics after single-dose vehicle/SLE and digoxin or GE; assay type: in vivo, Sprague-Dawley rats; conditions: female, Sprague-Dawley, rat, plasma, po, rats, control: single vehicle (0.5% sodium CMC), 2 h later digoxin 0.5 mg/kg or GE 120 mg/kg ig; read-out: t1/2 (converted)

{"Compound": "C[C@H]1O[C@@H](O[C@H]2[C@@H](O)C[C@H](O[C@H]3[C@@H](O)C[C@H](O[C@H]4CC[C@@]5(C)[C@H](CC[C@@H]6[C@@H]5C[C@@H](O)[C@]5(C)[C@@H](C7=CC(=O)OC7)CC[C@]65O)C4)O[C@@H]3C)O[C@@H]2C)C[C@H](O)[C@@H]1O [Digoxin, digoxin, reference compound]", "half-life (h)": 3.08}
{"Compound": "CC(C)=CCC[C@](C)(O[C@@H]1O[C@H](CO[C@@H]2OC[C@H](O)[C@H](O)[C@H]2O)[C@@H](O)[C@H](O)[C@H]1O)[C@H]1CC[C@]2(C)[C@@H]1[C@H](O)C[C@@H]1[C@@]3(C)CC[C@H](O[C@@H]4O[C@H](CO)[C@@H](O)[C@H](O)[C@H]4O[C@@H]4O[C@H](CO)[C@@H](O)[C@H](O)[C@H]4O)C(C)(C)[C@@H]3CC[C@]12C [Rb2, ginsenoside Rb2]", "half-life (h)": 19.4}
{"Compound": "CC(C)=CCC[C@](C)(O[C@@H]1O[C@H](CO[C@@H]2O[C@H](CO)[C@@H](O)[C@H](O)[C@H]2O)[C@@H](O)[C@H](O)[C@H]1O)[C@H]1CC[C@]2(C)[C@@H]1[C@H](O)C[C@@H]1[C@@]3(C)CC[C@H](O[C@@H]4O[C@H](CO)[C@@H](O)[C@H](O)[C@H]4O[C@@H]4O[C@H](CO)[C@@H](O)[C@H](O)[C@H]4O)C(C)(C)[C@@H]3CC[C@]12C [Rb1, ginsenoside Rb1]", "half-life (h)": 13.3}
